Molecular target: Plasmin (Homo sapiens, UniProt P00747)
Construct: Human plasmin is purchased; purchased Boehringer Mannheim, Indianapolis, Indiana
Sequence (P00747 581-810 limits assumed): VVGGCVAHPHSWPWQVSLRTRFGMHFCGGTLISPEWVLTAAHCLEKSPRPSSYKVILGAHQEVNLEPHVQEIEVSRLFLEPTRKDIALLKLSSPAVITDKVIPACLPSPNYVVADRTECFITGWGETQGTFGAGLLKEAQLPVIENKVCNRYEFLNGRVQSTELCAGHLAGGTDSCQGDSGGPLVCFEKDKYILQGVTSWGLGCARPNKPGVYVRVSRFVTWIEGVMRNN
Sequence (P00747 97-580 partner limits assumed): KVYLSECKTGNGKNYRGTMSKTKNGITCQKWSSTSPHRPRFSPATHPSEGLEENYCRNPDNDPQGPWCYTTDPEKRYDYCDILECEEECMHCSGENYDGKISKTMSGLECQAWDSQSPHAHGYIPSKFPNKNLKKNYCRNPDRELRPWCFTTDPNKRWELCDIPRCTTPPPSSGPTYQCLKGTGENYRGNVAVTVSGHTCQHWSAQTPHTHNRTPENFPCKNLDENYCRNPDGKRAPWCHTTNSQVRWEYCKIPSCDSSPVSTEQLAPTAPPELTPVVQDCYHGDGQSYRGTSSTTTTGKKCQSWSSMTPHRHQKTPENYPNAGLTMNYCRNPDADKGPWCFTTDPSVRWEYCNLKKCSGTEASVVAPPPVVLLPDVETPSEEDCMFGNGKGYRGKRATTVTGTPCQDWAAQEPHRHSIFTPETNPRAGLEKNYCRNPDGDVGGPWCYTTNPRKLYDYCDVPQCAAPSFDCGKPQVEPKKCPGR
Assay: biochemical
Conditions: read-out: Kass Plasmin (converted)
Counter-ions that a name gives are not always drawn.
Classification by Kd | ranges: band A (below 8 µM), band B (8 µM to below 200 µM), band C (200 µM or more)

Exam item: Input N=C(N)NCCCCCCNC(=O)[C@@H]1CCCN1C(=O)[C@H](N)Cc1ccccc1 [Example 5, D-Phe-Pro-NH(CH2)6NHC(NH)NH2·HCl] ; output its category
Marked response: band C

Exam item: Input O=C(O)CN[C@H](CC1CCCCC1)C(=O)N1CCC[C@H]1C(=O)NCC1=CCNCC1 [Example 58] ; output its category
Marked response: band C

Exam item: Input N=C(N)c1cccc(CCNC(=O)[C@@H]2CCCN2C(=O)[C@@H]2NCC[C@@H]3CCCC[C@@H]32)c1 [Example 29, 1-Piq-Pro-m-NHCH2CH2-C6H4C(=NH)NH2·2HCl] ; output its category
Marked response: band C

Exam item: Input CCS(=O)(=O)N[C@H](Cc1ccccc1)C(=O)N1[C@H](C(=O)NCc2ccc(C(=N)N)cc2)C[C@@H]2CCCC[C@@H]21 [Example 45] ; output its category
Marked response: band A

Exam item: Input N=C(N)c1ccc(CNC(=O)[C@@H]2CCCN2C(=O)[C@@H](Cc2ccccc2)NCC(=O)O)cc1 [Example 46] ; output its category
Marked response: band A

Exam item: Input N=C(N)N1CCC(CCNC(=O)[C@@H]2CCCN2C(=O)[C@@H](CC2CCCCC2)NCC(=O)O)CC1 [Example 57] ; output its category
Marked response: band B

Exam item: Input N=C(N)c1ccc(CNC(=O)[C@@H]2C[C@@H]3CCCC[C@@H]3N2C(=O)[C@H]2CCCCN2)cc1 [Example 20, D-hPro-Ohi-p-NHCH2C6H4C(NH)NH2·3HCl] ; output its category
Marked response: band B

Exam item: Input NCc1cccc(CNC(=O)[C@@H]2CCCN2C(=O)[C@H](N)Cc2ccccc2)c1 [Example 11, D-Phe-Pro-m-NHCH2C6H4CH2NH2·HCl] ; output its category
Marked response: band B

Exam item: Input N=C(N)c1ccc(CNC(=O)[C@@H]2CCCN2C(=O)[C@@H](CC2CCCCC2)NCCC(=O)O)cc1 [Example 52] ; output its category
Marked response: band B

Exam item: Input O=C(O)CN[C@H](CC1CCCCC1)C(=O)N1CCC[C@H]1C(=O)NCCCC1=CCNCC1 [Example 60] ; output its category
Marked response: band C

Exam item: Input N=C(N)c1ccc(CNC(=O)[C@@H]2C[C@@H]3CCCC[C@@H]3N2C(=O)[C@H]2C[C@H]3CCCC[C@H]3CN2)cc1 [Example 43, D-3-Piq-cis-Ohi-p-NHCH2C6H4C(NH)NH2·2HCl] ; output its category
Marked response: band A

Exam item: Input N=C(N)NCCCCNC(=O)[C@@H]1CCCN1C(=O)[C@@H]1NCC[C@H]2CCCC[C@H]21 [Example 61, trihydrochloride] ; output its category
Marked response: band C

Exam item: Input CCS(=O)(=O)N[C@H](Cc1ccccc1)C(=O)N1CCC[C@H]1C(=O)NCc1cccc(C(=N)N)c1 [Example 24] ; output its category
Marked response: band C
